These entries and their values trace back to ChEMBL document CHEMBL3232825.

experiment: in vivo; conditions: Sprague-Dawley, rat, iv, 1 mg/kg
PROPERTY LABEL: half-life (min)

SMI | PROPERTY LABEL | UNIT INFO | NUMERIC READOUT
Cc1cn(-c2cc3c(c(CC(C)C)c2)C(=O)NCC3)c2c1C(=O)CC(C)(C)C2 | half-life | min | 132

----------
assay: in vivo; conditions: Sprague-Dawley, rat, sc, 10 mg/kg

SMI | UNIT INFO | half-life
Cc1cn(-c2cc3c(c(CC(C)C)c2)C(=O)NCC3)c2c1C(=O)CC(C)(C)C2 | h | 11.6

----------
pKi: −log10 of the molar value.
Values of pKi reported for Heat shock protein HSP 90-beta (Homo sapiens, UniProt P08238) appear below.

SMI | QUALIFIER SIGN | pKi
Cc1cn(-c2cc3c(c(C4CCC4)c2)C(=O)NCC3)c2c1C(=O)CC(C)(C)C2 | = | 7.41
Cc1cn(-c2cc3c(c(-c4cccc(F)c4)c2)C(=O)NCC3)c2c1C(=O)CC(C)(C)C2 | = | 7.70
CN1CCc2c3c(n(-c4ccc5c(c4)CNC5=O)c2C1)CC(C)(C)CC3=O | < | 5.00
Cc1cn(-c2cc3c(c(-c4ccccc4)c2)C(=O)NCC3)c2c1C(=O)CC(C)(C)C2 | = | 7.82
Cc1cn(-c2cc3c(c(C4CCOCC4)c2)C(=O)NCC3)c2c1C(=O)CC(C)(C)C2 | = | 8.52
CC1(C)CC(=O)c2c3c(n(-c4ccc(C(N)=O)c(N[C@H]5CCOC5)c4)c2C1)CCCC3 | = | 7.40
Cc1cn(-c2cc3c(c(C(C)(C)C)c2)C(=O)NCC3)c2c1C(=O)CC(C)(C)C2 | = | 6.85

----------
Values of IC50 reported for Heat shock protein HSP 90-beta (Homo sapiens) appear below.

SMI | IC50 (nM)
Cc1cn(-c2cc3c(c(Cc4ccccc4)c2)C(=O)NCC3)c2c1C(=O)CC(C)(C)C2 | 480
Cc1cn(-c2cc3c(c(C4CCCCC4)c2)C(=O)NCC3)c2c1C(=O)CC(C)(C)C2 | 36

----------
experiment: Aqueous solubility of the compound at pH 7.4; assay type: physicochemical
Recorded solubility, one value per entry.
PROPERTY LABEL: solubility (µM)

SMI | QUALIFIER SIGN | NUMERIC READOUT
CN1CCc2c3c(n(-c4ccc(C(N)=O)c(N[C@H]5CCOC5)c4)c2C1)CC(C)(C)CC3=O | > | 200
CC1(C)CC(=O)c2c3c(n(-c4ccc(C(N)=O)c(N[C@H]5CCOC5)c4)c2C1)CCCC3 | = | 27

----------
assay: in vivo; conditions: Sprague-Dawley, rat, plasma, iv, 1 mg/kg
PROPERTY LABEL: AUC

SMI | RESULT
Cc1cn(-c2cc3c(c(CC(C)C)c2)C(=O)NCC3)c2c1C(=O)CC(C)(C)C2 | 640 ng·h/mL

----------
target: Endoplasmin (Homo sapiens, UniProt P14625)
Sequence (P14625 whole entry): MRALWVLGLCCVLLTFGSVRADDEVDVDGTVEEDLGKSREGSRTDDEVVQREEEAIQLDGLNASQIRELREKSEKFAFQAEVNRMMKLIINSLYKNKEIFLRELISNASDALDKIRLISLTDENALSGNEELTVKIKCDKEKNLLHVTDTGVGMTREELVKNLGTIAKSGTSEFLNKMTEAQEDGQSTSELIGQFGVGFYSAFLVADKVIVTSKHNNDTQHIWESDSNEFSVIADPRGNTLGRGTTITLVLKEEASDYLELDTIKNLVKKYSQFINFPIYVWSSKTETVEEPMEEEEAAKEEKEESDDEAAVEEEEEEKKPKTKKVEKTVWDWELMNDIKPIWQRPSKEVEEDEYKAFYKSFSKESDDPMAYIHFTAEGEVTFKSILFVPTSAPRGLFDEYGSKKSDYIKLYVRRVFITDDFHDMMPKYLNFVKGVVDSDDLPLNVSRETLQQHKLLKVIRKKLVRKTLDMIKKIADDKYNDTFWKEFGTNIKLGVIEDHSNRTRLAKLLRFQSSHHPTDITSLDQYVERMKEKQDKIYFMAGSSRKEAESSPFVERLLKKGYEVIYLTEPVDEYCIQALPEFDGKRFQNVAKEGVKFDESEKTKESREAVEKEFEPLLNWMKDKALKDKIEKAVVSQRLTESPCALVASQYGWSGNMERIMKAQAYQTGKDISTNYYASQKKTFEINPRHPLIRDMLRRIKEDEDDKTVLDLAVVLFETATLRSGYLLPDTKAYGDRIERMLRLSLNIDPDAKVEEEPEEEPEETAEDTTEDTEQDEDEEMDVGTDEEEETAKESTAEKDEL
pKi: −log10 of the molar value.

SMI | pKi
CCCCc1cc(-n2cc(C)c3c2CC(C)(C)CC3=O)cc2c1C(=O)NCC2 | < 5.00
Cc1cn(-c2cc3c(c(C4CCOCC4)c2)C(=O)NCC3)c2c1C(=O)CC(C)(C)C2 | 5.62
CN1CCc2c3c(n(-c4ccc5c(c4)CCCNC5=O)c2C1)CC(C)(C)CC3=O | < 5.00
CC1(C)CC(=O)c2c(n(-c3ccc(C(N)=O)cc3)c3cccnc23)C1 | < 5.00
Cc1cn(-c2cc3c(c(-c4ccccc4)c2)C(=O)NCC3)c2c1C(=O)CC(C)(C)C2 | < 5.00
CC1(C)CC(=O)c2c(n(-c3ccc(C(N)=O)cc3)c3cnccc23)C1 | < 5.00
